Listing: microsomal CLint of selected compounds
# assay_procedure: Microsomal stability in human liver microsome assessed as intrinsic clearance
# Format: ADME
# run_conditions: liver microsomes, read-out: CLH
// units = µL/min/mg; emit number, no label

Some solved entries appear below for comparison.
structure_notation=O=C1CCCC2(CCN(c3cc(OCC(F)(F)F)ncn3)CC2)N1c1ccc(Cl)c(F)c1 unit_abbreviation=µL/min/mg observed_result=57
structure_notation=O=C(/C=C/C1CC1)N1CCC2(CCCC(=O)N2c2ccc(Cl)c(F)c2)CC1 unit_abbreviation=µL/min/mg observed_result=34
structure_notation=O=C(/C=C/c1ccccc1)N1CCC2(CCCC(=O)N2Cc2ccccc2)CC1 unit_abbreviation=µL/min/mg observed_result=310
structure_notation=O=C1CCCC2(CCN(c3cc(OCC(F)(F)F)ncn3)CC2)N1c1ccc(F)c(F)c1 unit_abbreviation=µL/min/mg observed_result=62
structure_notation=O=C(/C=C/c1ccccc1)N1CCC2(CCCC(=O)N2c2ccc(F)c(F)c2)CC1 unit_abbreviation=µL/min/mg observed_result=73

Attention now turns to another entry.
Challenge: Provide measured microsomal CLint value, entry: O=C1CCCC2(CCN(c3cnc4ccccc4n3)CC2)N1Cc1ccccc1
Response given: 215

###

# assay_procedure: Cmax in C57BL6 mouse at 0.3 mg/kg, po measured upto 24 hrs by LC-MS/MS analysis
# Assay type: ADME, organism-based
# run_conditions: in vivo
endpoint_label: Cmax (µM)
All answers are understood in µM, so give the number only.

Challenge: Give reported Cmax value for O=C1CCCC2(CCN(c3cc(OCC(F)(F)F)ncn3)CC2)N1c1ccc(F)c(F)c1
Response given: 0.383

###

# assay_procedure: AUC (0 to infinity) in C57BL6 mouse at 0.3 mg/kg, po measured upto 24 hrs by LC-MS/MS analysis
# Type: ADME, organism-based
# run_conditions: in vivo
endpoint_label: AUC(0-inf) (µM·h)
Supply the numeric figure in µM·h, leaving out any unit text.

Challenge: Please give the documented AUC(0-inf) of O=C1CCCC2(CCN(c3cc(OCC(F)(F)F)ncn3)CC2)N1c1ccc(F)c(F)c1
Response given: 2.03

###

# assay_procedure: Volume of distribution at steady state in Beagle dog at 0.1 mg/kg, iv measured upto 24 hrs by LC-MS/MS analysis
# Type: ADME, organism-based, Canis lupus familiaris
# run_conditions: in vivo, read-out: Vdss
endpoint_label: Vd (L/kg)
Respond with the bare value in L/kg.

Challenge: Find the measured Vd of O=C1CCCC2(CCN(c3cc(OCC(F)(F)F)ncn3)CC2)N1c1ccc(F)c(F)c1 and report it.
Response given: 5.8

###

Examples of compounds with documented Vdss follow.
# assay_procedure: Volume of distribution at steady state in Sprague-Dawley rat at 3 mg/kg, po or 1 mg/kg, iv by LC-MS/MS analysis
# Type: ADME, organism-based
# run_conditions: in vivo
The response must be a number in L/kg with no trailing unit.

structure_notation=O=C1CCCC2(CCN(c3cc(OCC(F)(F)F)ncn3)CC2)N1c1ccc(F)c(F)c1 observed_result=2.3
structure_notation=O=C(/C=C/c1ccccc1)N1CCC2(CCCC(=O)N2c2ccc(F)c(F)c2)CC1 observed_result=1.9
structure_notation=O=C(/C=C/c1ccccc1)N1CCC2(CCCC(=O)N2c2ccc(Cl)c(F)c2)CC1 observed_result=2.6

Challenge: For the compound O=C1CCCC2(CCN(c3cc(OCC(F)(F)F)ncn3)CC2)N1c1ccc(Cl)c(F)c1 , give its measured Vdss value.
Response given: 2.3

Challenge: Please give the documented Vdss of O=C(/C=C/c1ccccc1)N1CCC2(CCCC(=O)N2c2ccccc2)CC1
Response given: 6.8

Hello, the source for this data is ChEMBL document CHEMBL6153142, in case you need it.
